Test: Inhibition of GLUT in HEK293 cells assessed as reduction in 2-deoxyglucose uptake at 100 uM pretreated for 10 mins followed by 2-deoxyglucose addition in presence of choline buffer measured after 1 hr by resazurin dye based fluorescence assay
Type: cell-based
Conditions: human
OUTCOME MEASURE: inhibition (INH)

Use these answered entries as a reference point.
[[record]]
structure_smiles = "O=C(CCc1ccc(O)cc1)c1c(O)cc(O)c([C@@H]2O[C@H](CO)[C@@H](O)[C@H](O)[C@H]2O)c1O"
experimental_value = "Not Active"

[[record]]
structure_smiles = "O=C(CCc1ccc(O)cc1)c1c(O)cc(O)cc1O"
experimental_value = "Active"

[[record]]
structure_smiles = "O=C(/C=C/c1ccc(OCc2ccccc2)cc1)c1c(O)cc(O)cc1O"
experimental_value = "Active"

[[record]]
structure_smiles = "Cc1ccc(CCC(=O)c2c(O)cc(O)c([C@@H]3O[C@H](CO)[C@@H](O)[C@H](O)[C@H]3O)c2O)cc1"
experimental_value = "Not Active"

[[record]]
structure_smiles = "COc1ccc(CCC(=O)c2c(O)cc(O)cc2O)cc1"
experimental_value = "Active"

[[record]]
structure_smiles = "CCOc1ccc(/C=C/C(=O)c2c(O)cc(O)cc2O)cc1"
experimental_value = "Active"


Return inhibition (INH) (reported value) for this molecule: CCCOc1ccc(CCC(=O)c2c(O)cc(O)c([C@@H]3O[C@H](CO)[C@@H](O)[C@H](O)[C@H]3O)c2O)cc1
Not Active

Return inhibition (INH) (reported value) for this molecule: C=CCOc1ccc(/C=C/C(=O)c2c(O)cc(O)cc2O)cc1
Active

Return inhibition (INH) (reported value) for this molecule: O=C(CCc1ccccc1)c1c(O)cc(O)c([C@@H]2O[C@H](CO)[C@@H](O)[C@H](O)[C@H]2O)c1O
Not Active

###

Molecular target: Sodium/glucose cotransporter 2 (Homo sapiens, UniProt P31639)
Sequence (P31639 whole entry): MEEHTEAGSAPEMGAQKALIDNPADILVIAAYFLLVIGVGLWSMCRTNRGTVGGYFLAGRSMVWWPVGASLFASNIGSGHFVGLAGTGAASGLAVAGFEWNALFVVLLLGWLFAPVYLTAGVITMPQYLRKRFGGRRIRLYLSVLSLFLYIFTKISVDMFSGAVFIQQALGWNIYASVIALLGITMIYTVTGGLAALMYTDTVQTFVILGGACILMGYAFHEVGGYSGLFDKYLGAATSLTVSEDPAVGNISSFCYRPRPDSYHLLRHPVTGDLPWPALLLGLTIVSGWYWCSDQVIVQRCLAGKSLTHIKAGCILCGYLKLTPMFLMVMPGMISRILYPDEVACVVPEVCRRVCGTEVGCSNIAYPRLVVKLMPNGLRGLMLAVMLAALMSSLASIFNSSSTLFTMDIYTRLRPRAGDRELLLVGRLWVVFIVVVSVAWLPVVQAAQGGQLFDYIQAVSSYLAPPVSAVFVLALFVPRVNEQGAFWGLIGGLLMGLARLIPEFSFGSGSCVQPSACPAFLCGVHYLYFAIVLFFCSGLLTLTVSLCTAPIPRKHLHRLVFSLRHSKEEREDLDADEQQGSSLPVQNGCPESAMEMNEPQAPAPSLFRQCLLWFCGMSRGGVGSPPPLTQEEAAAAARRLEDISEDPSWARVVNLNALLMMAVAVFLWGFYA
Assay: Inhibition of human SGLT2 expressed in HEK293 cells assessed as reduction in 2-deoxyglucose uptake pretreated for 10 mins followed by 2-deoxyglucose addition in presence of sodium buffer measured after 1 hr by resazurin dye based fluorescence assay
OUTCOME MEASURE: IC50 (µM)
All answers are understood in µM, so give the number only.

Return IC50 (reported value) for this molecule: CCOc1ccc(CCC(=O)c2c(O)cc(O)cc2O)cc1
16.7

Return IC50 (reported value) for this molecule: O=C(CCc1ccc(F)cc1)c1c(O)cc(O)cc1O
15.8

Return IC50 (reported value) for this molecule: Cc1ccc(CCC(=O)c2c(O)cc(O)cc2O)cc1
18

Return IC50 (reported value) for this molecule: Cc1ccc(/C=C/C(=O)c2c(O)cc(O)cc2O)cc1
34.1

Return IC50 (reported value) for this molecule: COc1ccc(CCC(=O)c2c(O)cc(O)cc2O)cc1
18.7

Return IC50 (reported value) for this molecule: O=C(/C=C/c1ccc(Br)cc1)c1c(O)cc(O)cc1O [4-BROMO-2',4',6'-TRIHYDROXYCHALCONE]
23.5

Return IC50 (reported value) for this molecule: O=C(CCc1ccc(O)cc1)c1c(O)cc(O)cc1O
18.3

Return IC50 (reported value) for this molecule: O=C(CCc1ccccc1)c1c(O)cc(O)cc1O
14.7

Return IC50 (reported value) for this molecule: CCOc1ccc(/C=C/C(=O)c2c(O)cc(O)cc2O)cc1
26

Return IC50 (reported value) for this molecule: CCCOc1ccc(CCC(=O)c2c(O)cc(O)c([C@@H]3O[C@H](CO)[C@@H](O)[C@H](O)[C@H]3O)c2O)cc1
0.0227

Return IC50 (reported value) for this molecule: O=C(CCc1ccccc1)c1c(O)cc(O)c([C@@H]2O[C@H](CO)[C@@H](O)[C@H](O)[C@H]2O)c1O
0.0198

Return IC50 (reported value) for this molecule: CCCOc1ccc(CCC(=O)c2c(O)cc(O)cc2O)cc1
16.4

Return IC50 (reported value) for this molecule: COc1ccc(/C=C/C(=O)c2c(O)cc(O)cc2O)cc1 [4-METHOXYL-2',4',6'-TRIHYDROXYCHALCONE]
18.2

Return IC50 (reported value) for this molecule: C=CCOc1ccc(/C=C/C(=O)c2c(O)cc(O)cc2O)cc1
26.2

Return IC50 (reported value) for this molecule: COc1ccc(CCC(=O)c2c(O)cc(O)c([C@@H]3O[C@H](CO)[C@@H](O)[C@H](O)[C@H]3O)c2O)cc1
0.0213

Return IC50 (reported value) for this molecule: O=C(/C=C/c1ccc(OCc2ccccc2)cc1)c1c(O)cc(O)cc1O
22.7

Return IC50 (reported value) for this molecule: O=C(CCc1ccc(F)cc1)c1c(O)cc(O)c([C@@H]2O[C@H](CO)[C@@H](O)[C@H](O)[C@H]2O)c1O
0.0091

Return IC50 (reported value) for this molecule: CCOc1ccc(CCC(=O)c2c(O)cc(O)c([C@@H]3O[C@H](CO)[C@@H](O)[C@H](O)[C@H]3O)c2O)cc1
0.0217

Return IC50 (reported value) for this molecule: O=C(/C=C/c1ccc(F)cc1)c1c(O)cc(O)cc1O [4-FLUORO-2',4',6'-TRIHYDROXYCHALCONE]
51.7

Return IC50 (reported value) for this molecule: Cc1ccc(CCC(=O)c2c(O)cc(O)c([C@@H]3O[C@H](CO)[C@@H](O)[C@H](O)[C@H]3O)c2O)cc1
0.0182

Return IC50 (reported value) for this molecule: O=C(CCc1ccc(O)cc1)c1c(O)cc(O)c([C@@H]2O[C@H](CO)[C@@H](O)[C@H](O)[C@H]2O)c1O
0.0119

The origin of these recorded values is ChEMBL document CHEMBL4002619.
